# assayed target: Protein kinase C gamma type (Homo sapiens) (UniProt P05129);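 also: each value is an averaged percent inhibition of the enzyme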
# experimental context: at 1 µM
property name: inhibition (%)
Only the number, expressed in %, is required.

COC(=O)Nc1nc2ccc(Sc3ccc(NC(=O)Nc4cc(C(F)(F)F)ccc4F)cc3)cc2[nH]1: 4.57

Please give the measured inhibition for this molecule: CCS(=O)(=O)c1ccc(OC)c(Nc2ncc(-c3cccc(-c4ccccc4F)c3)o2)c1
0.81

Can you check FC(F)(F)c1cccc(Nc2nccc(-c3cnn4nc(-c5ccccc5)ccc34)n2)c1 next?
1.78

Can you check Fc1ccc(-c2nc3n(c2-c2ccncc2)CCS3)cc1 next?
0.85

Can you check CNC(=O)c1cncc(/C=C/c2c(C)cccc2C)c1 next?
0.78
